- PROTOCOL DETAILS: Liver microsomal metabolic stability, human liver microsomes (HLM)
- STUDY CONDITIONS: human, liver microsomes
Quick list: half-life at 1 μM per entry.

Below are worked cases with known answers.
# COMPOUND, half-life at 1 μM
rows = [
    ("COc1ncnc(C2CC2)c1-c1nn2c(c1Cl)N(Cc1ccc(-c3nc(C(F)(F)F)cn3C)cc1)C(=O)CC2", "> 25 min"),
    ("COc1ncnc(C2CC2)c1-c1nc2n(n1)CCC(=O)N2Cc1ccc(-c2nc(C(F)(F)F)cn2C(C)C)cc1", "> 25 min"),
    ("CCn1cc(C(F)(F)F)nc1-c1ccc(CN2C(=O)C(C)Cn3nc(-c4c(OC(F)F)ncnc4C4CC4)nc32)cc1F (stereo not shown)", "> 25 min"),
    ("CC(C)n1cc(C(F)(F)F)nc1-c1ccc(CN2CCCn3nc(-c4c(Cl)cnn4C(C)C)cc32)cc1F", "< 25 min"),
    ("COc1ncnc(C2CC2)c1-c1cc2n(n1)CCC(=O)N2Cc1ccc(-n2nc(C(F)(F)F)cc2C)c(F)c1", "> 25 min"),
    ("COc1cc(C(F)(F)F)nn1-c1ccc(CN2C(=O)CCn3nc(-c4c(Cl)cnn4C(C)C)cc32)cc1", "> 25 min"),
    ("CC(CF)n1cc(C(F)(F)F)nc1-c1ccc(NC2CCCn3nc(-c4c(OC(F)F)ncnc4C4CC4)cc32)cc1 (stereo not shown)", "> 25 min"),
    ("CCn1cc(C(F)(F)F)nc1-c1ccc(NC2CCCn3nc(-c4c(Cl)cnn4C(C)C)cc32)cc1OC (stereo not shown)", "> 25 min"),
]

In: Entry Cc1cnn(C(C)C)c1-c1nn2c(c1Cl)N(Cc1ccc(-c3nc(C(F)(F)F)cn3C)cc1)CCC2 needs its half-life at 1 μM filled in; supply it.
Out: < 25 min

In: In one line, give reported half-life at 1 μM of the entry CCn1cc(C(F)(F)F)nc1-c1ccc(CN2C(=O)CCn3nc(-c4c(Cl)cnn4C(C)COC)cc32)cc1F (stereo not shown) .
Out: < 25 min

In: Provide measured half-life at 1 μM value, entry: CCn1cc(C(F)(F)F)nc1-c1ccc(CN2C(=O)CCn3nc(-c4c(OC)ncnc4C4CC4)cc32)cc1
Out: > 25 min

In: Provide half-life at 1 μM value for the following compound: Cc1cnn(C(C)C)c1-c1nc2n(n1)CCCN2Cc1ccc(-c2nc(C(F)(F)F)cn2C(C)C)cc1
Out: < 25 min

In: Report half-life at 1 μM for CCn1cc(C(F)(F)F)nc1-c1c(F)cc(CN2C(=O)CCn3nc(-c4c(Cl)cnn4C(C)C)nc32)cc1OC
Out: > 25 min

In: Tell me its half-life at 1 μM given CCn1cc(C(F)(F)F)nc1-c1ccc(CN2CC3(CC3)Cn3nc(-c4c(OC)ncnc4C4CC4)cc32)cc1F as the entry.
Out: < 25 min

In: Tell me measured half-life at 1 μM for COc1cc(C(F)(F)F)nn1-c1ccc(CN2C(=O)CCn3nc(-c4c(Cl)cnn4C(C)C)cc32)cc1F please.
Out: > 25 min

In: Determine from records and report half-life at 1 μM for CCn1cc(C(F)(F)F)nc1-c1ccc(CN2C(=O)CCn3nc(-c4c(Cl)cnn4C(C)C)cc32)cc1F
Out: > 25 min

In: Entry CCn1cc(C(F)(F)F)nc1-c1c(F)cc(CN2C(=O)CCn3nc(-c4c(OC)ncnc4C4CC4)cc32)cc1OC needs its half-life at 1 μM filled in; supply it.
Out: > 25 min

In: Supply recorded half-life at 1 μM for COc1cc(C)nn1-c1ccc(CN2C(=O)CCn3nc(-c4c(Cl)cnn4C(C)C)cc32)cc1 here.
Out: < 25 min

In: Return value of half-life at 1 μM for input CCn1cc(C(F)(F)F)nc1-c1ccc(N(C)C2CCCn3nc(-c4c(Cl)cnn4C(C)C)cc32)cc1 (stereo not shown) , no commentary.
Out: < 25 min

---

Each record here notes measured pIC50.
- Tested on: Ub-PCNA levels in the nucleus of ES2 cells (USP1 activity)
- PROTOCOL DETAILS: ES2 Ub-PCNA immunofluorescence (IF) assay
- Format: cell-based
- STUDY CONDITIONS: Homo sapiens, ES-2; ES2 cells, 3 hours, Ub-PCNA immunofluorescence; read-out: USP1 IC50 (Ub-PCNA)
pIC50: −log10 of the molar value.

# MOLECULE, pIC50
measured = [
    ("CCn1cc(C(F)(F)F)nc1-c1ccc(CN2C(=O)[C@H](C)Cn3nc(-c4c(OC)ncnc4C4CC4)nc32)cc1F (single isomer, unassigned)", "> 7.00"),
    ("CC(C)n1ncc(Cl)c1-c1cc2n(n1)CCC(=O)N2Cc1ccc(-c2cn(C)c(C(F)(F)F)n2)cc1", "6.30 to 7.00"),
    ("COc1ncnc(C2CC2)c1-c1nc2n(n1)CCC(=O)N2Cc1ccc(-c2nc(C(F)(F)F)cn2C(C)CF)cc1 (centres unmarked)", "> 7.00"),
    ("CCn1cc(C(F)(F)F)nc1-c1ccc([C@@H](C)N2C(=O)CCn3nc(-c4c(Cl)cnn4C(C)C)nc32)cc1", "> 7.00"),
    ("CC(C)n1cc(C(F)(F)F)nc1-c1ccc(CN2C(=O)CCn3nc(-c4c(Cl)cnn4C(C)C)nc32)cc1F", "6.30 to 7.00"),
    ("COc1ncnc(C2CC2)c1-c1cc2n(n1)CCC(=O)N2Cc1ccc(-n2nc(C(F)(F)F)cc2C)c(F)c1", "6.30 to 7.00"),
]

In: Recall and state the measured pIC50 for CCn1cc(Cl)nc1-c1ccc(CN2C(=O)CCn3nc(-c4c(Cl)cnn4C(C)C)cc32)cc1 .
Out: > 7.00

In: For the molecule Cc1cc(C(F)(F)F)nn1-c1ccc(CN2C(=O)CCn3nc(-c4c(Cl)cnn4C(C)C)cc32)cc1 , give its reported pIC50.
Out: 6.30 to 7.00

In: Using the record for CC(C)n1ncc(Cl)c1-c1cc2n(n1)CCC(=O)N2Cc1ccc(-c2ncccc2OC2CC2)c(Cl)c1 , state its measured pIC50.
Out: 6.30 to 7.00

In: Name the recorded pIC50 of the item COc1ncnc(C2CC2)c1-c1nc2n(n1)CCC(=O)N2[C@@H](C)c1ccc(-n2nc(C(F)(F)F)cc2C)c(F)c1 in your answer.
Out: 6.30 to 7.00

---

- PROTOCOL DETAILS: ADME solubility determination in PBS at pH 2.0 and pH 7.4
- Assay type: physicochemical
- STUDY CONDITIONS: phosphate buffered saline, 25 °C, pH 2, aqueous buffer, thermodynamic from solid, PBS pH 2.0, 25° C., read-out: Solubility at pH 2.0
Below, each entry is listed with its recorded solubility at 24 h.

Examples with their reported solubility at 24 h follow.
# MOLECULE, solubility at 24 h
data = [
    ("CCn1cc(C(F)(F)F)nc1-c1ccc(O[C@H]2CCCn3nc(-c4c(OC)ncnc4C4CC4)cc32)cc1F (single isomer, unassigned) [Example 263]", "< 10 µM"),
    ("CCn1cc(C(F)(F)F)nc1-c1ccc(CN2C(=O)CCn3nc(-c4c(C#N)cnn4C(C)C)cc32)cc1 [Example 156]", "< 10 µM"),
    ("COc1cc(CN2C(=O)CCn3nc(-c4c(OC)ncnc4C4CC4)nc32)ccc1-c1nc(C(F)(F)F)cn1C(C)C [Example 166]", "≥ 10 µM"),
    ("COc1ncnc(C2CC2)c1-c1nn2c(c1C)N(Cc1ccc(-c3nc(C(F)(F)F)cn3C)cc1)C(=O)CC2 [Example 35]", "< 10 µM"),
    ("CC(C)n1ncc(Cl)c1-c1cc2n(n1)CCC(=O)N2Cc1ccc(-c2ncccc2N2CCOCC2)c(Cl)c1 [Example 296]", "≥ 10 µM"),
]

Could you now consider this next molecule?
In: Consider the molecule Cc1cc(C(F)(F)F)nn1-c1ccc(CN2C(=O)CCn3nc(-c4c(Cl)cnn4C(C)C)cc32)cc1 [Example 86] and give its recorded solubility at 24 h.
Out: < 10 µM

---

List of IC50 values.
- Tested on: Ub-PCNA levels in the nucleus of ES2 cells (USP1 activity)
- PROTOCOL DETAILS: ES2 Ub-PCNA immunofluorescence (IF) assay
- Format: cell-based
- STUDY CONDITIONS: Homo sapiens, ES-2; ES2 cells, 3 hours, Ub-PCNA immunofluorescence; read-out: USP1 IC50 (Ub-PCNA)

# COMPOUND, IC50
measured = [
    ("CCn1cc(C(F)(F)F)nc1-c1ccc([C@@H](C)N2C(=O)CCn3nc(-c4c(OC)ncnc4C4CC4)cc32)cc1F [Example 143]", "< 100 nM"),
]

In: Check Ub-PCNA levels in the nucleus of ES2 cells (USP1 activity) data and give IC50 for CCn1cc(C(F)(F)F)nc1-c1ccc(Cn2c(=O)ccn3nc(-c4c(OC)ncnc4C4CC4)nc23)cc1 [Example 337] .
Out: < 100 nM

In: Find the measured IC50 of CC(CF)n1cc(C(F)(F)F)nc1-c1ccc(NC2CCCn3nc(-c4c(OC(F)F)ncnc4C4CC4)cc32)cc1 (stereo not shown) [Example 249] with Ub-PCNA levels in the nucleus of ES2 cells (USP1 activity) as test system.
Out: < 100 nM

In: Look up and report IC50, with Ub-PCNA levels in the nucleus of ES2 cells (USP1 activity) as system, for COc1ncnc(C2CC2)c1-c1cc2n(n1)CCC(=O)N2Cc1ccc(-c2nc(C(F)(F)F)cn2C)c(F)c1 [Example 2]
Out: 100 to 500 nM

In: Fill in: IC50 on Ub-PCNA levels in the nucleus of ES2 cells (USP1 activity), entry Cc1cnn(C(C)C)c1-c1cc2n(n1)CCC(=O)N2Cc1ccc(-c2nc(C(F)(F)F)nn2C)cc1 [Example 11]
Out: > 500 nM

In: Quote Ub-PCNA levels in the nucleus of ES2 cells (USP1 activity) IC50 for entry Cc1cnn(C(C)C)c1-c1nc2n(n1)CCC(=O)N2Cc1ccc(-c2nc(C(F)(F)F)cn2C(C)C)cc1 [Example 38] .
Out: < 100 nM

In: Give IC50 for COc1ncnc(C2CC2)c1-c1nn2c(c1C)N(Cc1ccc(-c3nc(C(F)(F)F)cn3C)cc1)C(=O)CC2 [Example 35] tested on Ub-PCNA levels in the nucleus of ES2 cells (USP1 activity).
Out: > 500 nM

The reported numbers originate from patent US20230219965A1.
